Biological target: SMARCA2 (Homo sapiens, UniProt P51531)
Sequence (P51531 whole entry): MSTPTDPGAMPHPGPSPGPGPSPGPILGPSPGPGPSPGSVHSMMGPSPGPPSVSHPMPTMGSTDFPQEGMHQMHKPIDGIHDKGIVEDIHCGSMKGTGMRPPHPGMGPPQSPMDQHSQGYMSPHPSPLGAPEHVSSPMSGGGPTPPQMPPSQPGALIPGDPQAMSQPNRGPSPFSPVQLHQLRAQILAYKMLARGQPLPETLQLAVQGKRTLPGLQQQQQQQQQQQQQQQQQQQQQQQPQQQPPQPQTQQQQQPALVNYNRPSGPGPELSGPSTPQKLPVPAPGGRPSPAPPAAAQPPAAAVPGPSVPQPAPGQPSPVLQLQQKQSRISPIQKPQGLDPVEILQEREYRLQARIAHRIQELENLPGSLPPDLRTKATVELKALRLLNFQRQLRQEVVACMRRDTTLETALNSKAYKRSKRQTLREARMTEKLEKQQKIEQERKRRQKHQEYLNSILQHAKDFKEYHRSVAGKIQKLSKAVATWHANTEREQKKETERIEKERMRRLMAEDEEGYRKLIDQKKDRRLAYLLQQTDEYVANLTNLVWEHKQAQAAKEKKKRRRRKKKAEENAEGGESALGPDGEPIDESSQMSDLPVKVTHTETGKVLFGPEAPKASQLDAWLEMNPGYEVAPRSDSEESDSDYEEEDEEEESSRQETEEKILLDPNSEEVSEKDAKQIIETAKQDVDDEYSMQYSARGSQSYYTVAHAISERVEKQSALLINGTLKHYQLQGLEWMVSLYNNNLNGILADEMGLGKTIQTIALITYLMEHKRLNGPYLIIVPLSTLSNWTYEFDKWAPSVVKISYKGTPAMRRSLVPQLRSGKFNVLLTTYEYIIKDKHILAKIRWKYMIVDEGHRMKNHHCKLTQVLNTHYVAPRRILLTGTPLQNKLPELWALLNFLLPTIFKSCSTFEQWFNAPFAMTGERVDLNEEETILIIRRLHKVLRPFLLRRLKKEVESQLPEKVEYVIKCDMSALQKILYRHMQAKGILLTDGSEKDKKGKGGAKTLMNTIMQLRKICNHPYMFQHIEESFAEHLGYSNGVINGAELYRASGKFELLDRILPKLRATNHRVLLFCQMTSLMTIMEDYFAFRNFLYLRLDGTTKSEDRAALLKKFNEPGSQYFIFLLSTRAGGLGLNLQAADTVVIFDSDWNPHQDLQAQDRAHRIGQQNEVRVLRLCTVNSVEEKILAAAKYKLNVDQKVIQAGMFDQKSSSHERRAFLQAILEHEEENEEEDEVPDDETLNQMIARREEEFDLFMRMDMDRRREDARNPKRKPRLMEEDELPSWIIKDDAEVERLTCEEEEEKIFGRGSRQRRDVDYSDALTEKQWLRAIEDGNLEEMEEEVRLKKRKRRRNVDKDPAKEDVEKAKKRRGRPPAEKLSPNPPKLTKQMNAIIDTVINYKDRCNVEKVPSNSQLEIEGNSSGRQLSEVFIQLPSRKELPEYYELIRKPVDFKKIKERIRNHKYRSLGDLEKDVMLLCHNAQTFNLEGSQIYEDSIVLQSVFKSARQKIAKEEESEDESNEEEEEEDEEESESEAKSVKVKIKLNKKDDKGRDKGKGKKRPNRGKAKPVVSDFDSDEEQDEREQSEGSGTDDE
Assay: MSD SMARCA2 degradation in NCI-H1299 cell line (24 h)
Format: cell-based
Design: HC: NCI-H1299 cells treated with DMSO; host or cells: NCI-H1299
Conditions: NCI-H1299, NCI-H1299 cells
Attribute Measured: Dmax

Consider the following illustrative entries.
# Compound, Reported Value
measured = [
    ("Cn1c(=O)n(C2CCC(=O)NC2=O)c2cccc(CNCCCCCc3cn(Cc4cccc(N5C[C@H]6C[C@@H]5CN6/C=C/C(=O)c5ccccc5O)n4)nn3)c21 (stereo partly drawn)", "< 50%"),
    ("Cn1c(=O)n(C2CCC(=O)NC2=O)c2ccc(CNCCCCCc3cn(Cc4cccc(N5C[C@H]6C[C@@H]5CN6/C=C/C(=O)c5ccccc5O)n4)nn3)cc21 (stereo partly drawn)", "< 50%"),
    ("Cn1c(=O)n(C2CCC(=O)NC2=O)c2cccc(CCCNCc3cn(Cc4cccc(N5C[C@H]6C[C@@H]5CN6/C=C/C(=O)c5ccccc5O)n4)nn3)c21 (stereo partly drawn)", "< 50%"),
    ("Cn1c(=O)n(C2CCC(=O)NC2=O)c2cccc(CCCCCOc3ccc(CN4CCN(c5cc(-c6ccccc6O)nnc5N)CC4)cc3)c21 (stereo not drawn)", "50 to 70%"),
    ("Cn1c(=O)n(C2CCC(=O)NC2=O)c2ccc(CNCCc3cn(Cc4cccc(N5C[C@H]6C[C@@H]5CN6/C=C/C(=O)c5ccccc5O)n4)nn3)cc21 (stereo partly drawn)", "< 50%"),
]

The record that follows has no Dmax shown yet.
Input: Assign Dmax to the following record: COc1cc(C(=O)NCCCCCNCc2ccc(N3CCN(c4cc(-c5ccccc5O)nnc4N)CC3)cc2)ccc1NC(=O)[C@@H]1N[C@@H](CC(C)(C)C)[C@](C#N)(c2ccc(Cl)cc2F)[C@H]1c1cccc(Cl)c1F
Output: < 50%
